pKi: −log10 of the molar value.
This section lists pKi readings for STAT3 (Homo sapiens (Human), UniProt P40763).
property-label: pKi

# input compound: Cc1ccc(S(=O)(=O)N(CC(=O)N(Cc2ccc(C3CCCCC3)cc2)c2ccc(C(=O)O)c(O)c2)CC(C)C)cc1 ; wanted: its pKi
5.08

Given Cc1ccc(S(=O)(=O)N(CC(=O)N(Cc2ccc(C3CCCCC3)cc2)c2ccc(C(=O)O)c(O)c2)Cc2ccccc2N)cc1 , state its recorded pKi.
4.92

Consider the compound Cc1ccc(S(=O)(=O)N(CC(=O)N(Cc2ccc(C3CCCCC3)cc2)c2ccc(C(=O)O)c(O)c2)Cc2ccccc2C#N)cc1 and give its measured pKi.
4.95

Need pKi of CCCN(CC(=O)N(Cc1ccc(C2CCCCC2)cc1)c1ccc(C(=O)O)c(O)c1)S(=O)(=O)c1ccc(C)cc1 , thanks.
5.05

Give its pKi value. Item: Cc1ccc(S(=O)(=O)N(CC(=O)N(Cc2ccc(C3CCCCC3)cc2)c2ccc(C(=O)O)c(O)c2)Cc2c(F)cc(F)c(F)c2F)cc1
5.11
